The measurements presented in this section are drawn from the supplement of paper PMC6757056.

B1: library; a variant is named by its letters at N, in order (parent)
chain: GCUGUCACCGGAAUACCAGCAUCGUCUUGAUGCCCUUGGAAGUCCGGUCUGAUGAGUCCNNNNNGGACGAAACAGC

- Variants of: B1
- Assay Summary: normalized RNA/DNA level with ligand (relative to sTRSVctl = 100) (log10 (% of sTRSVctl)); higher = less ribozyme self-cleavage, higher mRNA level
- Condition Context: ligand concentration (+) RNA-Seq: 5 mM, HEK293T, reporter: mCherry (pCS4076), ligand present: yes
Given measured normalized RNA/DNA level with ligand (log10), output rule met if it is greater than or equal to 2 and rule not met if not.

Some solved entries appear below for comparison.
Mutation List: GAGAA
Answer Label: rule not met
--
Mutation List: CAGGC
Answer Label: rule met
--
Mutation List: CACCC
Answer Label: rule not met
--
Mutation List: AUUGC
Answer Label: rule met
--
Mutation List: AUAUC
Answer Label: rule not met
--
Mutation List: AAUAA
Answer Label: rule not met
--
Mutation List: UAUGU
Answer Label: rule met
--
Mutation List: AAAAC
Answer Label: rule not met

From here, focus on the item given below.
In plain terms: is recorded normalized RNA/DNA level with ligand (log10) at least 2 for `CCCGU` ?
rule not met
